Tested on: CAL-85-1
Assay: normalised response (% of control), CellTox Green; higher = less cell death (100 = DMSO, 0 = benzethonium chloride kill control)
Details: incubation time: 72 h
Please respond with reported normalised response for every item in the list.
State just the number; it will be interpreted in %.

The reported normalised response of the compound COc1ccccc1S(=O)(=O)Nc1ccc2c(c1)CN(C)C(=O)N2 [PFI-1] (10000 nM) was 65.1

Form: compound = CCCCCCCCc1ccc(CCC(N)(CO)CO)cc1 [Fingolimod] (10000 nM) ; normalised response = -110

For record NS(=O)(=O)OC[C@@H]1C[C@@H](n2ccc3c(N[C@H]4CCc5ccccc54)ncnc32)C[C@@H]1O [Pevonedistat] (100 nM) the listed normalised response is 81.5

So for Nc1ncnc2c1c(COc1cccc(Cl)c1)nn2C1CCOCC1 (10000 nM) , the logged normalised response turned out to be 91.3
